Can you tell me activity at 1 µM for the items I'm about to list?
Target: EP300 (Homo sapiens, UniProt Q09472)
Sequence (Q09472 whole entry, species assumed): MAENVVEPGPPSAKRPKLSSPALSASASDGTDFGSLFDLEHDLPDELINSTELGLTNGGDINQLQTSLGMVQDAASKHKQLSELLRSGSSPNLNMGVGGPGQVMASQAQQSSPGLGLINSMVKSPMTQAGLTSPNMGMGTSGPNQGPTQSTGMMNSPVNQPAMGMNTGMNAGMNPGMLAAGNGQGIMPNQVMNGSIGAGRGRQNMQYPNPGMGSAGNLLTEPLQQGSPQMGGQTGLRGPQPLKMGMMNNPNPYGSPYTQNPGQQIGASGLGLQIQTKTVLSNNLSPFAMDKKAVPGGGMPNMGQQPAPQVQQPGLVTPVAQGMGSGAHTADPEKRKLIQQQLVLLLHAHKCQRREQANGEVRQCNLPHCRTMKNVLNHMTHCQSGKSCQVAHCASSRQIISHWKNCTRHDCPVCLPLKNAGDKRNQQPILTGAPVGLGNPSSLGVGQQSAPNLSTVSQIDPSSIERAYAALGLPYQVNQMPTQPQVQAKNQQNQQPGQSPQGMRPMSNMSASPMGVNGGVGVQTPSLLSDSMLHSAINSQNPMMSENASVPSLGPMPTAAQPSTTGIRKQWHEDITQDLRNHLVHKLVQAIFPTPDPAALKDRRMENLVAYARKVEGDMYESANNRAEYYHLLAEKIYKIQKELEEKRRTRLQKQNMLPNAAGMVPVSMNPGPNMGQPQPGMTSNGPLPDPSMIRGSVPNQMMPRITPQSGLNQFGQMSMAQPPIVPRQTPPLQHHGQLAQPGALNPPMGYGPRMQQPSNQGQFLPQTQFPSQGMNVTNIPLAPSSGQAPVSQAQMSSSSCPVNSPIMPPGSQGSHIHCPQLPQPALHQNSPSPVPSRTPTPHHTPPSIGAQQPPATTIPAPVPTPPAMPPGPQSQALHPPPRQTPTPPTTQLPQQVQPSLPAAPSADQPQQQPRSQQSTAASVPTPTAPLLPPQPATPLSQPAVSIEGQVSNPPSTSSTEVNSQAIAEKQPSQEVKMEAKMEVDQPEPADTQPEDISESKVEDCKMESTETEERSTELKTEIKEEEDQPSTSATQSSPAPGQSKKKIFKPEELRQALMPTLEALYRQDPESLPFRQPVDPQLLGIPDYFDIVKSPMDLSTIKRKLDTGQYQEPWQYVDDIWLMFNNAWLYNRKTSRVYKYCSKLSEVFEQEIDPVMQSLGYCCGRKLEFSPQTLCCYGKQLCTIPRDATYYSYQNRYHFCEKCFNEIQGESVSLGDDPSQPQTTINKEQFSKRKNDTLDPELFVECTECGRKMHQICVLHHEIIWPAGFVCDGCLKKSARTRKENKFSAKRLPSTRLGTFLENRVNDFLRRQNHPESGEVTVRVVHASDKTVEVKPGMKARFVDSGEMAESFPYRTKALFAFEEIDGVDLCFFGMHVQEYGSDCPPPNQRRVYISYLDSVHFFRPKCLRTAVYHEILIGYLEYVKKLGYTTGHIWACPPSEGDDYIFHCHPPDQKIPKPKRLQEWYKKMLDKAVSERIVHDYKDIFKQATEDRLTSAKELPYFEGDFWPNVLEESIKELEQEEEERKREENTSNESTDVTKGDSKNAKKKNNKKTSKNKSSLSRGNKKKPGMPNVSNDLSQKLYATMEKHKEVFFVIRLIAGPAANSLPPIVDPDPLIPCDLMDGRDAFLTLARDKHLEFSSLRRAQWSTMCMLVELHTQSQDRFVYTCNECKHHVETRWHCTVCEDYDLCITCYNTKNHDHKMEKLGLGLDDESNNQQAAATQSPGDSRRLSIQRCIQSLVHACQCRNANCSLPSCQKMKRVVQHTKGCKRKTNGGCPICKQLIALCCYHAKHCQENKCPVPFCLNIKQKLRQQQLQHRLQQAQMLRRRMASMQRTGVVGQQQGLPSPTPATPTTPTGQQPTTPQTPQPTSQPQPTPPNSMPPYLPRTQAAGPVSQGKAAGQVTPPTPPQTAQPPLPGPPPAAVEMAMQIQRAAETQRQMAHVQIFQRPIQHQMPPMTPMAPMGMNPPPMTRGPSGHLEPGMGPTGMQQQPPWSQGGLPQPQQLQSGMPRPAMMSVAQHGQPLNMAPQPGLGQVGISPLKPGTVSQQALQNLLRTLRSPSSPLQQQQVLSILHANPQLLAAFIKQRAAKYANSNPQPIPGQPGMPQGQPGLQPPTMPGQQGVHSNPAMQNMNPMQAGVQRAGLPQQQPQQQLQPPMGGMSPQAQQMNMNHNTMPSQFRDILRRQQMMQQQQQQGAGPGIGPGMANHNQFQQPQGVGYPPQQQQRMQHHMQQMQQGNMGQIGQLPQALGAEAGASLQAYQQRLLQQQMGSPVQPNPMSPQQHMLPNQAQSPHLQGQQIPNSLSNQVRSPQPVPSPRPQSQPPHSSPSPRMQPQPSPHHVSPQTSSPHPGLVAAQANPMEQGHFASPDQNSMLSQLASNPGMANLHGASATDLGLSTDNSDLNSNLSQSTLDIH
Assay: Histone acetyltransferase (HAT) activity assay;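 also: selectivity screen of bromodomain probe compounds against histone acetyltransferases, with enzyme activity given in percent for compounds tested at 1 and 10 µM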
Format: biochemical
Conditions: 1µM; read-out: HATs Activity (%)
One number for each entry, in %.

{"molSmiles": "Cc1nnc2c3ccccc3c(N[C@@H](C)[C@H](c3ccccc3)N(C)C)nn12", "activity at 1 µM (%)": 94}
{"molSmiles": "COc1ccc(CCc2nc3cc(-c4c(C)noc4C)ccc3n2C[C@H](C)N2CCOCC2)cc1Cl", "activity at 1 µM (%)": 98}
{"molSmiles": "CC(=O)c1cc(-c2cc(C(=O)NC3CC3)ccc2C)c2ncccn12", "activity at 1 µM (%)": 95}

For every item in the list below, what is its measured activity at 1 µM?
1. CN1C[C@H](Nc2cnn(C)c(=O)c2Br)C[C@H](c2ccccc2)C1
2. CN(C)CCCOc1ccc(-c2cc(NCCCn3cccn3)nc(S(C)(=O)=O)n2)cc1
3. COc1cc(-c2cn(C)c(=O)c3cnccc23)c(OC)cc1CN(C)C

Response given:
[93, 99, 99]

---

Can you tell me inhibition at 10 µM for the items I'm about to list?
Target: MLL3 (pentameric) (Homo sapiens, UniProt Q8NEZ4)
Construct: purchased DiscoverX BROMOscan (bromodomains); SGC in-house methyltransferase panel
Assay: Methyl transferase scintillation proximity assay
Assay type: biochemical
Details: average of two measurements, read-out: MTases Inhibition (%)
Give bare numbers, in %.

Some solved cases for reference:
{"compound": "COc1cc(Cl)c(C(=O)N[C@@H](CN[C@H]2CC[C@@H](N)CC2)Cc2ccc(C#N)cc2)cc1-c1ccc(CN[C@H](C)c2ccc(C)cc2)o1 [BAY-850]", "systemUnderTest": "MLL3 (pentameric) (Homo sapiens, UniProt Q8NEZ4)", "numericValue": 0}
{"compound": "Cc1c(NC(=O)c2cc(C(N)=O)nc3cc(F)ccc23)c(C(F)(F)F)nn1Cc1ccc(C(C)(C)C)cc1 [BAY-588]", "systemUnderTest": "MLL3 (pentameric) (Homo sapiens, UniProt Q8NEZ4)", "numericValue": 7}
{"compound": "CN1C[C@H](Nc2cnn(C)c(=O)c2Br)C[C@H](c2ccccc2)C1 [GSK4027]", "systemUnderTest": "MLL3 (pentameric) (Homo sapiens, UniProt Q8NEZ4)", "numericValue": 2}

Next compound, inhibition at 10 µM to be filled in.
Challenge: Retrieve inhibition at 10 µM measured for CN(C)CCCOc1ccc(-c2cc(NCCCn3cccn3)nc(S(C)(=O)=O)n2)cc1 [TP-238] and print it.
Response given: -3

---

Molecular target: ASH1L (Homo sapiens, UniProt Q9NR48)
Construct: purchased DiscoverX BROMOscan (bromodomains); SGC in-house methyltransferase panel
Test: Methyl transferase scintillation proximity assay
Type: biochemical
Settings: average of two measurements, read-out: MTases Inhibition (%)
Procedure: Assays measuring lysine and arginine methyl transferase activity have been described in Scheer et al.. A radioactivity-based scintillation proximity assay was used to monitor incorporation of a tritium-labeled methyl group into the biotinylated substrate of the methyl transferase. A 10-μl reaction containing ^3H-SAM and substrate at concentrations close to the apparent Km values for each enzyme was prepared. […] The counts per minute (CPM) was measured on a TopCount plate reader. […]
Can you tell me inhibition at 10 µM for the items I'm about to list?
One number for each entry, in %.

Some solved cases for reference:
{"molSmiles": "CN1C[C@H](Nc2cnn(C)c(=O)c2Br)C[C@H](c2ccccc2)C1", "inhibition at 10 µM, %": 13}
{"molSmiles": "CO[C@H]1CNC[C@@H](OCC2CCC(F)(F)CC2)[C@@H]1Nc1ncc(-c2cncc(C)c2)c2cc(C)c(=O)[nH]c12", "inhibition at 10 µM, %": 2}
{"molSmiles": "Cc1nnc2c3ccccc3c(N[C@@H](C)[C@H](c3ccccc3)N(C)C)nn12", "inhibition at 10 µM, %": -3}
{"molSmiles": "COc1cc(Cl)c(C(=O)N[C@@H](CN[C@H]2CC[C@@H](N)CC2)Cc2ccc(C#N)cc2)cc1-c1ccc(CN[C@H](C)c2ccc(C)cc2)o1", "inhibition at 10 µM, %": 3}
{"molSmiles": "Cc1c(NC(=O)c2cc(C(N)=O)nc3cc(F)ccc23)c(C(F)(F)F)nn1Cc1ccc(C(C)(C)C)cc1", "inhibition at 10 µM, %": -6}
{"molSmiles": "CN(C)CCCOc1ccc(-c2cc(NCCCn3cccn3)nc(S(C)(=O)=O)n2)cc1", "inhibition at 10 µM, %": -4}

Next molecule, inhibition at 10 µM to be filled in.
Challenge: Give inhibition at 10 µM only, for Cc1c(NC(=O)c2cc(C(N)=O)nc3cc(F)ccc23)c(C(F)(F)F)nn1Cc1ccc(C#N)cc1 , using ASH1L (Homo sapiens, UniProt Q9NR48) data.
Response given: 4

---

Biological target: TRIM24(PHD,BRD) (Homo sapiens)
Sequence (O15164 824-1006 limits assumed): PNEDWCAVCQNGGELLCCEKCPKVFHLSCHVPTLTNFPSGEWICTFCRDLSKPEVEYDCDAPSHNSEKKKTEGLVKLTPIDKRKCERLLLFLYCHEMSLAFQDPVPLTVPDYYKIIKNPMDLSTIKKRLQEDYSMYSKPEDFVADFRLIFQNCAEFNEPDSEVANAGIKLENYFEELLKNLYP
Experiment: BROMOscan ligand-binding assay
Settings: BROMOscan Gene Symbol TRIM24(PHD,Bromo.)
parameterMeasured: pKd
Answers are plain numbers, as −log10 of the molar value.

{"molSmiles": "Cc1noc(C)c1-c1ccc2c(c1)nc(CCc1ccccc1)n2CCN1CCOCC1", "pKd": 4.77}

Next compound, pKd to be filled in.
Challenge: Retrieve pKd measured for COc1ccc(CCc2nc3cc(-c4c(C)noc4C)ccc3n2CCN2CCOCC2)cc1 and print it.
Response given: 4.59

---

Target: ATAD2A (Homo sapiens)
Sequence (Q6PL18 980-1092 limits assumed): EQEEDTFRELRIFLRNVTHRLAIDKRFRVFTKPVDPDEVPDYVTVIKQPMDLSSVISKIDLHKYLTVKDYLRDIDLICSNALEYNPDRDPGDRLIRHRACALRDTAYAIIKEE
Test: BROMOscan ligand-binding assay
Conditions: KD, BROMOscan Gene Symbol ATAD2A
pKd: −log10 of the molar value.
Can you tell me pKd for the items I'm about to list?

Some solved cases for reference:
{"molecule": "CCC(=O)N1CCOc2c(cc(-c3ccc(OC)c(OC)c3)cc2OCC2CCCN(C)C2)C1 (stereo not drawn)", "parameterMeasured": "pKd", "result": "< 4.00"}
{"molecule": "CCCOc1ccn2c(C(C)=O)cc(-c3ccccc3S(C)(=O)=O)c2c1", "parameterMeasured": "pKd", "result": "< 4.00"}

Next molecule, pKd to be filled in.
Challenge: Retrieve pKd measured for CCOC(=O)Nc1cc(-c2ccc(C)c(NS(C)(=O)=O)c2)nn2c(C)nnc12 and print it.
Response given: 4.21

---

Molecular target: PBRM1(2) (Homo sapiens, UniProt Q86U86)
Sequence (Q86U86 177-287 limits assumed): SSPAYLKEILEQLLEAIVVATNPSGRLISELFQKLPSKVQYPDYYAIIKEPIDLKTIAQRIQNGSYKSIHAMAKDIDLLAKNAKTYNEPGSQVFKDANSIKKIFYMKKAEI
Experiment: BROMOscan ligand-binding assay
Settings: read-out: KD (BROMOscan); sheet prints no unit (nM)
parameterMeasured: Kd

Challenge: Retrieve Kd measured for COc1cc2c(cc1NS(=O)(=O)c1ccc(Br)cc1C)n(C)c(=O)n2C and print it.
Response given: > 30000 nM

---

Target: BRD2(1,2) (Homo sapiens)
Sequence (P25440 71-455 limits assumed): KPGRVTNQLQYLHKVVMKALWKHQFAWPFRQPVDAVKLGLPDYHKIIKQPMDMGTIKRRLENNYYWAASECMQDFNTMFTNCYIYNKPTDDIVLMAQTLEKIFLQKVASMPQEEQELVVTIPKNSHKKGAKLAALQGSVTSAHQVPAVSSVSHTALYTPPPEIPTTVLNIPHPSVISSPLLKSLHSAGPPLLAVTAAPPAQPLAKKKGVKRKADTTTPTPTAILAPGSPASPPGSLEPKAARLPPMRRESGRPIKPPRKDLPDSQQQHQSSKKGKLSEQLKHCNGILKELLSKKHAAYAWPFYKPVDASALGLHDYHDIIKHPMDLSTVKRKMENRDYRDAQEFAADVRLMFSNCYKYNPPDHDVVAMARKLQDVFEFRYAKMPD
Assay: BROMOscan ligand-binding assay
Settings: read-out: KD (BROMOscan); sheet prints no unit (nM)
parameterMeasured: Kd (nM)
Numbers only, in nM.

Challenge: Retrieve Kd measured for COc1cc(C#N)ccc1S(=O)(=O)Nc1ccc2c(c1)cc(C)c(=O)n2C and print it.
Response given: 12000

---

Can you tell me Kd for the items I'm about to list?
Target: ATAD2B (Homo sapiens, UniProt Q9ULI0)
Sequence (Q9ULI0 951-1066 limits assumed): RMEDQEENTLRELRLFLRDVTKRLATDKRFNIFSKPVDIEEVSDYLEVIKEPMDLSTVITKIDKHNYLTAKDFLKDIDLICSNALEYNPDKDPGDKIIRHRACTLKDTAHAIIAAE
Assay: BROMOscan ligand-binding assay
Details: read-out: KD (BROMOscan); sheet prints no unit (nM)

Some solved cases for reference:
{"molecule": "COc1ccc(CCc2nc3cc(-c4c(C)noc4C)ccc3n2CCN2CCOCC2)cc1 [CBP30-383]", "Kd": "> 30000 nM"}
{"molecule": "COc1cc(C#N)ccc1S(=O)(=O)Nc1ccc2c(c1)cc(C)c(=O)n2C [NIC57]", "Kd": "> 30000 nM"}

Next molecule, Kd to be filled in.
Challenge: Retrieve Kd measured for Cc1noc(C)c1-c1ccc2c(c1)nc(CCc1ccccc1)n2CCN1CCOCC1 [CBP30-298] and print it.
Response given: > 30000 nM

---

Molecular target: DNMT1 (Homo sapiens, UniProt P26358)
Construct: purchased DiscoverX BROMOscan (bromodomains); SGC in-house methyltransferase panel
Sequence (P26358 whole entry): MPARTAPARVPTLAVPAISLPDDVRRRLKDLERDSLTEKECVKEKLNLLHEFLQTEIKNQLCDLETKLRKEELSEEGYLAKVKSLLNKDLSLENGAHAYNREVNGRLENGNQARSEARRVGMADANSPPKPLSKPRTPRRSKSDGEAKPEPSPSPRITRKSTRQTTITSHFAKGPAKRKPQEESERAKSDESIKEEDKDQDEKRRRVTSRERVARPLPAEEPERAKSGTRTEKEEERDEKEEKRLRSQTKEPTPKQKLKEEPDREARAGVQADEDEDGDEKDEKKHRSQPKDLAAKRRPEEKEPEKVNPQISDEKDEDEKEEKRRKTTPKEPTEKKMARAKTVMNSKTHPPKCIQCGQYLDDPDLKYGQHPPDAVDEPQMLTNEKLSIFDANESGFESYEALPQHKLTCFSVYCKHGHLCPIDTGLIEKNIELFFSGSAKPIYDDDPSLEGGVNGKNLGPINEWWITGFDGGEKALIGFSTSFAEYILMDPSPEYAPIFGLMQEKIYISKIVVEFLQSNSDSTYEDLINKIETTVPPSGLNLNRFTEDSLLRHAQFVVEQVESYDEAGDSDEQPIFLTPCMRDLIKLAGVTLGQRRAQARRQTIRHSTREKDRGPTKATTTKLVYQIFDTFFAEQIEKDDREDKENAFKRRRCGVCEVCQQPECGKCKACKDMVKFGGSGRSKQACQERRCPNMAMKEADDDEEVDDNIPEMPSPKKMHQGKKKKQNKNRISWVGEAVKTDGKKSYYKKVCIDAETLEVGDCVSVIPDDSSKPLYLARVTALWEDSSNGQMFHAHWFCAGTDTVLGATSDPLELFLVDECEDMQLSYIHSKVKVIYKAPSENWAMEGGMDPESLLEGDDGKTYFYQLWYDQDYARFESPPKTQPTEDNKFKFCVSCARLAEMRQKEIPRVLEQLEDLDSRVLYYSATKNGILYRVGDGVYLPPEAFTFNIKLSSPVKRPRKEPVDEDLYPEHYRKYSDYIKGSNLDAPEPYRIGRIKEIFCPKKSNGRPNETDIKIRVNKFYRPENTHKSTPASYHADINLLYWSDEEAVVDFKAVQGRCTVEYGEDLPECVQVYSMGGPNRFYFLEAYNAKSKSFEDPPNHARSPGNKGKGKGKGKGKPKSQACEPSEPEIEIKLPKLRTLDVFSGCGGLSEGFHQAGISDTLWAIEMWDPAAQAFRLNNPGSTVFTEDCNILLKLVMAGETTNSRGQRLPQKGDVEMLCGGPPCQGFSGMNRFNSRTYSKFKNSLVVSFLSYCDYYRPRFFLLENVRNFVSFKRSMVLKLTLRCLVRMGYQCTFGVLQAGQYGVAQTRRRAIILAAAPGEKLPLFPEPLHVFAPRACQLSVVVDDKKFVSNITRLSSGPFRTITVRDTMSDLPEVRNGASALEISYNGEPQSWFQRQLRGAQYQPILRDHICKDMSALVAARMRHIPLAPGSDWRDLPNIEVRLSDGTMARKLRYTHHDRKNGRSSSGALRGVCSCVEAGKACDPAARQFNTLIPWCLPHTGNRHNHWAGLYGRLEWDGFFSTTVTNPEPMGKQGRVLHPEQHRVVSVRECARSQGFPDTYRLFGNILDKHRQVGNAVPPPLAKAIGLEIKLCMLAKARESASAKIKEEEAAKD
Experiment: Methyl transferase scintillation proximity assay
Assay type: biochemical
Details: average of two measurements, read-out: MTases Inhibition (%)
parameterMeasured: inhibition at 10 µM (%)
One number for each entry, in %.

Some solved cases for reference:
{"molecule": "Cc1c(NC(=O)c2cc(C(N)=O)nc3cc(F)ccc23)c(C(F)(F)F)nn1Cc1ccc(C#N)cc1 [BAY-876]", "inhibition at 10 µM / %": 4}
{"molecule": "Cc1nnc2c3ccccc3c(N[C@@H](C)[C@H](c3ccccc3)N(C)C)nn12 [L-Moses]", "inhibition at 10 µM / %": 3}
{"molecule": "CO[C@H]1CNC[C@@H](OCC2CCC(F)(F)CC2)[C@@H]1Nc1ncc(-c2cncc(C)c2)c2cc(C)c(=O)[nH]c12 [GSK8814]", "inhibition at 10 µM / %": -3}
{"molecule": "CN1C[C@H](Nc2cnn(C)c(=O)c2Br)C[C@H](c2ccccc2)C1 [GSK4027]", "inhibition at 10 µM / %": 3}

For every item in the list below, what is its measured inhibition at 10 µM?
1. COc1cc(Cl)c(C(=O)N[C@@H](CN[C@H]2CC[C@@H](N)CC2)Cc2ccc(C#N)cc2)cc1-c1ccc(CN[C@H](C)c2ccc(C)cc2)o1 [BAY-850]
2. Cc1c(NC(=O)c2cc(C(N)=O)nc3cc(F)ccc23)c(C(F)(F)F)nn1Cc1ccc(C(C)(C)C)cc1 [BAY-588]
3. CN(C)CCCOc1ccc(-c2cc(NCCCn3cccn3)nc(S(C)(=O)=O)n2)cc1 [TP-238]

Response given:
1: 4; 2: 9; 3: 3
